IC50 values, listed per item
target: CDK9–cyclin T (Homo sapiens, UniProt P50750); construct: purchased Thermo Fisher; test: Lanthascreen kinase binding assay, CDK9; conditions: Supplementary Table 2; read-out: Lanthascreen IC50 [nM] CDK9
Sequence (P50750 whole entry): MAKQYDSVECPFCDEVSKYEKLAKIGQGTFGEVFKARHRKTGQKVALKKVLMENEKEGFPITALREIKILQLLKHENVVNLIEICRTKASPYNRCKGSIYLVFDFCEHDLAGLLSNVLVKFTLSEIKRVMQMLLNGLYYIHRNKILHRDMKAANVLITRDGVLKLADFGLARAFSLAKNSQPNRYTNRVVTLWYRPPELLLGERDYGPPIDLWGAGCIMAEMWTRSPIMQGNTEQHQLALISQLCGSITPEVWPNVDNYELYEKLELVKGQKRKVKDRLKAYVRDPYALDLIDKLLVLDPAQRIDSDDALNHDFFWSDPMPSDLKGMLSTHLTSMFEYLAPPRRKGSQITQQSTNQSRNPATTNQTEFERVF
Sequence (O60563 whole entry partner): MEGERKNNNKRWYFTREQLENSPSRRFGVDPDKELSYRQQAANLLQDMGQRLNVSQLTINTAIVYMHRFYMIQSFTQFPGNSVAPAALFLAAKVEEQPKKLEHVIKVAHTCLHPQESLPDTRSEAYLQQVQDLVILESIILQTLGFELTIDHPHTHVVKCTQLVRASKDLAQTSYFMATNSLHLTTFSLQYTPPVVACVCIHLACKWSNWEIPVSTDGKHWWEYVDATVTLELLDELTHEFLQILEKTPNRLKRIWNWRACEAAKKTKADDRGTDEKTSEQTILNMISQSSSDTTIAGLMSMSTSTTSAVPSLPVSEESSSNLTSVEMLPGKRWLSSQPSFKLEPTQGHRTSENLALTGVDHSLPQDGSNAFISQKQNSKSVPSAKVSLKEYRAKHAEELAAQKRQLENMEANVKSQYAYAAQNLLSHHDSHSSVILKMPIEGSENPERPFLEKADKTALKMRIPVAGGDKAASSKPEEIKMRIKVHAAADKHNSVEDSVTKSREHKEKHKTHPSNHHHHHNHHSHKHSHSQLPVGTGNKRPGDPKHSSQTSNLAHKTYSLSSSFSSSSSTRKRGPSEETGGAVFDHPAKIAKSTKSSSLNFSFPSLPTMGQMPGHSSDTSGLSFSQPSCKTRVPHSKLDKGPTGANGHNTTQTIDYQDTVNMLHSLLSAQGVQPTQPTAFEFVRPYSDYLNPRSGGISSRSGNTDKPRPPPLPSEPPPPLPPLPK
// units = nM; emit number, no label

Solved cases (2 shown):
>>> recorded_number("CN1CCN(c2nc(NCc3nc4c(F)c(F)ccc4[nH]3)n3ncc(Br)c3n2)CC1")
684
>>> recorded_number("Cn1cc(-n2cnc3c(NCc4nc5cc(Cl)c(Cl)cc5[nH]4)nc(N4CCOCC4)nc32)cn1")
3660

Shifting focus to the compound that follows.
So what does the record say about IC50 for COc1cc2nc(CN3CCc4sccc4C3)[nH]c(=O)c2cc1OC ? 2230

* * *

Molecular target: CDK12–cyclin K (Homo sapiens, UniProt Q9NYV4)
Sequence (Q9NYV4 713-1052): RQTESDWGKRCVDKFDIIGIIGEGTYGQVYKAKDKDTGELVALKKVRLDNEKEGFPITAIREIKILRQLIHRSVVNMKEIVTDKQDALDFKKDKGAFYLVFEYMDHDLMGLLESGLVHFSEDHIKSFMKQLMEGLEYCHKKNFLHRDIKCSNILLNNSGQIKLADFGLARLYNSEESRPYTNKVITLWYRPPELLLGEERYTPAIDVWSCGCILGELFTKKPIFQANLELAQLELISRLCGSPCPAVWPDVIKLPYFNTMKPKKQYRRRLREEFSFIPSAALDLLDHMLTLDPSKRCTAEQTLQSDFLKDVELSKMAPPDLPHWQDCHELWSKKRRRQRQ
Sequence (O75909 1-267 partner limits assumed): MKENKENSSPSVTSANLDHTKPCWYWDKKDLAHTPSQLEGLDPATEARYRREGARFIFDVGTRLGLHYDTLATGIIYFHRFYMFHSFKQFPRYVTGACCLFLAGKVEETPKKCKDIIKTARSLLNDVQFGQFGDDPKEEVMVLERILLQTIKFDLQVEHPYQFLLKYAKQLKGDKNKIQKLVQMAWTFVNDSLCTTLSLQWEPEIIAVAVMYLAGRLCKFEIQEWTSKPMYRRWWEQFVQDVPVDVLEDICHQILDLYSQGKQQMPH
Assay: Lanthascreen kinase binding assay, CDK12
Details: Lanthascreen; read-out: CDK12 inhibition
Protocol: Lanthascreen experiments were performed using commercially available reagents (Thermo Fisher) and according to the manufacturer’s instructions.
pIC50: −log10 of the molar value.
quantity_measured: pIC50

So what does the record say about pIC50 for Cc1cccc(Nc2nc(CC(=O)Nc3ncc(C)s3)cs2)n1 ? < 5.00

* * *

target: CDK12–cyclin K and DDB1 (Homo sapiens, UniProt Q16531+Q9NYV4, K965R); construct: His6–CDK12 (a.a. 713–1,052); full-length or beta-propeller B domain deletion (ΔBPB: a.a. 396–705 deleted) constructs of His6–DDB1ΔBPB, StrepII–Avi–DDB1, or His6–Spy–DDB1; made in house; host or cells: Trichoplusia ni High Five insect cells (baculovirus); experiment: TR-FRET ternary complex formation assay (compound titration); type: binding; conditions: in vitro complex formation, 50 nM CDK12–cyclin K, 100 nM DDB1; text and figures; read-out: TR-FRET EC50
Sequence (Q9NYV4 713-1052 K965R): as the sequence (Q9NYV4 713-1052) above, with K253R counted along it
Sequence (O75909 1-267 partner): as the sequence (O75909 1-267 partner limits assumed) above
Sequence (Q16531 whole entry): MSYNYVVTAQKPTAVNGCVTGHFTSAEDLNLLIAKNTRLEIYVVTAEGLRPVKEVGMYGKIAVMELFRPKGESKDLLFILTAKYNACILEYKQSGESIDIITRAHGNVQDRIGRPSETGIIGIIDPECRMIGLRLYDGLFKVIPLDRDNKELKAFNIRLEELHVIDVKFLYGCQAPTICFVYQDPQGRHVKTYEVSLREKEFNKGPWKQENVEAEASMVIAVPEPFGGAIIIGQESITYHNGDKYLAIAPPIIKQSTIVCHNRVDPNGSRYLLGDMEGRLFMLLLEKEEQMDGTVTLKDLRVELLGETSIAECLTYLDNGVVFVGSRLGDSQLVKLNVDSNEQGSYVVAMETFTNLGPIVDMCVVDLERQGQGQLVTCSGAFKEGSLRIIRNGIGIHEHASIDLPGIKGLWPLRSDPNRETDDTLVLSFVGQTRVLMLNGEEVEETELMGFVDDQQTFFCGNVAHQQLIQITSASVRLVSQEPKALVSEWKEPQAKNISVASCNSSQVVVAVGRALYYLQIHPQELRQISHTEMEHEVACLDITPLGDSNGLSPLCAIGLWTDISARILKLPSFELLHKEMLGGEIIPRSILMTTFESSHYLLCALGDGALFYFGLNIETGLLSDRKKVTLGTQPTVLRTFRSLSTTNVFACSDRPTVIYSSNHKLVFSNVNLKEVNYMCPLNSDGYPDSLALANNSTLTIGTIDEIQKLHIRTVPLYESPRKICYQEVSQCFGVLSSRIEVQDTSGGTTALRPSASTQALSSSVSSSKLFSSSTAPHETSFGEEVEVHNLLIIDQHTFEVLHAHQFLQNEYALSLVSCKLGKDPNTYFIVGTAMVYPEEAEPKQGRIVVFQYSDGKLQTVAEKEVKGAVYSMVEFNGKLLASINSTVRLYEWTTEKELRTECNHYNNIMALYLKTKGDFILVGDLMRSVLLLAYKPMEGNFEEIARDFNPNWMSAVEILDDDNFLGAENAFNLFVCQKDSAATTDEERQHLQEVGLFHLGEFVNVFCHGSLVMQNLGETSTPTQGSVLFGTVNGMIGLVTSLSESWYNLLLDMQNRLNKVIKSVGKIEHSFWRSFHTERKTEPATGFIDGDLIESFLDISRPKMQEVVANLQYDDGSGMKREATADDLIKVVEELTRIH
quantity_measured: pEC50
# pEC50 = -log10(concentration in molar units)

>>> recorded_number("CC(C)n1cnc2c(NCc3ccc(-c4ccccn4)cc3)nc(N[C@@H](Cc3ccc(OCc4ccccc4)cc3)c3nnc[nH]3)nc21 [DS58]")
6.02
>>> recorded_number("COC[C@@H](C)N[C@H]1CC[C@H](Nc2cc(-c3cccc(NCC4(C#N)CCOCC4)n3)c(Cl)cn2)CC1 [NVP-2, reference compound]")
7.21
>>> recorded_number("Cc1cccc(Nc2nc(CC(=O)Nc3ncc(C)s3)cs2)n1 [HQ461]")
7.37
>>> recorded_number("Cn1cc(-n2cnc3c(NCc4nc5cc(Cl)c(Cl)cc5[nH]4)nc(NCCc4cn[nH]c4)nc32)cn1 [DS57]")
7.14
>>> recorded_number("CCC(CO)Nc1nc(NCc2ccc(-c3ccccc3)cc2)c2ncn(C(C)C)c2n1 (stereo not shown) [DS16]")
7.77
>>> recorded_number("Cc1cc2nc(CNc3nc(N4CCN(C)CC4)nc4c(Br)cnn34)[nH]c2cc1C [DS73, reference compound]")
7.82

Shifting focus to the compound that follows.
So what does the record say about pEC50 for CC[C@H](CO)Nc1nc(Nc2ccc(-c3ccccn3)cc2)c2ncn(C(C)C)c2n1 [DRF053, reference compound] ? 6.15

* * *

target: CDK12–cyclin K and DDB1 (Homo sapiens, UniProt Q16531+Q9NYV4, K965R); construct: His6–CDK12 (a.a. 713–1,052); full-length or beta-propeller B domain deletion (ΔBPB: a.a. 396–705 deleted) constructs of His6–DDB1ΔBPB, StrepII–Avi–DDB1, or His6–Spy–DDB1; made in house; host or cells: Trichoplusia ni High Five insect cells (baculovirus); assay: TR-FRET Kd determination, quadratic fit, 50 nM or 10 nM CDK12–cyclin K; format: binding; conditions: 50 nM CDK12-cyclin K; compound 2001.6 nM
TR-FRET signal values, listed per item
In your answer, state the number alone without any accompanying words.

>>> recorded_number("CCC(CO)Nc1nc(NCc2ccc(-c3ccccc3)cc2)c2ncn(C(C)C)c2n1 (stereo not shown)")
2.6928
>>> recorded_number("CC[C@H](CO)Nc1nc(NCc2nc3cc(Cl)c(Cl)cc3[nH]2)c2ncn(C(C)C)c2n1")
3.218

Give recorded TR-FRET signal with CDK12–cyclin K and DDB1 (Homo sapiens, UniProt Q16531+Q9NYV4, K965R) for the following compound: CCC(CO)Nc1nc(NCc2ccc(-c3ccccn3)cc2)c2ncn(C(C)C)c2n1 (stereo not shown) [CR8, reference compound] 3.013

Give recorded TR-FRET signal with CDK12–cyclin K and DDB1 (Homo sapiens, UniProt Q16531+Q9NYV4, K965R) for the following compound: Cc1cc2nc(CNc3nc(N4CCN(C)CC4)nc4c(Br)cnn34)[nH]c2cc1C [DS73, reference compound] 3.197
